The entries below come with measured IC50 values attached.
# Measured Target: human TLR9 (Homo sapiens, UniProt Q9NR96)
# Test Protocol: TLR9 inhibition reporter assay (HEK-Blue cells, SEAP reporter, ODN2006 stimulation)
# Condition Set: HEK-Blue cells overexpressing human TLR9, ODN2006 5 nM
Give just the number in µM; leave the unit off.

COc1ccc(-c2[nH]c3ccc(C4CCN(C(=O)CN5CCC[C@H](C(=O)NCC#N)C5)CC4)cc3c2C(C)C)cc1OC
3.05
COc1ccc(-c2[nH]c3ccc(C4CCN(Cc5ccc6ccccc6n5)CC4)cc3c2C)cc1OC
1.43
CCC(C)NC(=O)CN1CCC(c2ccc3[nH]c(-c4ccc(OC)c(OC)c4)c(CC(F)(F)F)c3c2)CC1 (stereo not shown)
8.65

Query compound follows.
Query: Look up and state reported IC50 for CCN(CC)C(=O)C1CCCN(CC(=O)N2CCC(c3ccc4[nH]c(-c5ccc(OC)c(OC)c5)c(CC(F)(F)F)c4c3)CC2)C1 (stereo not shown) [Example 421]
Response: 2.28

* * *

Each entry below carries its reported IC50.
# Measured Target: human TLR9 (Homo sapiens, UniProt Q9NR96)
# Sequence (Q9NR96 26-1032): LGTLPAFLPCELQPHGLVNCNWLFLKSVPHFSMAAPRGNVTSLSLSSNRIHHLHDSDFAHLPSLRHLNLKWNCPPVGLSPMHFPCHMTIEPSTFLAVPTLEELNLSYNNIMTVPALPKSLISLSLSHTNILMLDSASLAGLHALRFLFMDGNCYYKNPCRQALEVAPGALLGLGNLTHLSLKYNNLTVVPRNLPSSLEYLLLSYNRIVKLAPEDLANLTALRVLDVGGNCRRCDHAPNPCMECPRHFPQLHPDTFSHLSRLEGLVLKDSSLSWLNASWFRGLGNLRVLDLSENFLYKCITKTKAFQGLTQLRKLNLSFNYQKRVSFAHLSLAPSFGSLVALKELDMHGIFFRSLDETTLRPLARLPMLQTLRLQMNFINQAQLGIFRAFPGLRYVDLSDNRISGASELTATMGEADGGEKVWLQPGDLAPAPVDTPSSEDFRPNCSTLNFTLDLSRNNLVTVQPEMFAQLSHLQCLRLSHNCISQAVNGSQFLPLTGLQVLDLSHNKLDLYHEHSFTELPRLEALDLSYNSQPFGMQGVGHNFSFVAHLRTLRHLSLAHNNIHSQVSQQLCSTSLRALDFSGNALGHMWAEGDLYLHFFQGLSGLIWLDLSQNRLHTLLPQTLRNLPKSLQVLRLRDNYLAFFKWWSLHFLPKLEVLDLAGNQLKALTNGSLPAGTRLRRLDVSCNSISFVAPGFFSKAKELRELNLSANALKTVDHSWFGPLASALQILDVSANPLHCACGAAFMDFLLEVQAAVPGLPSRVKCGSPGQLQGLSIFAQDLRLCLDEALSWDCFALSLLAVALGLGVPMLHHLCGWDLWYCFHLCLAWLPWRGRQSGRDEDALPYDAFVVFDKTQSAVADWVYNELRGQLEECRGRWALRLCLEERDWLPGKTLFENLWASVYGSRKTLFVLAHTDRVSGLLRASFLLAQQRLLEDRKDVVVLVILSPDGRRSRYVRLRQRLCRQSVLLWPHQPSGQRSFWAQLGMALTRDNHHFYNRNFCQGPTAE
# Test Protocol: TLR9 inhibition reporter assay (HEK-Blue cells, SEAP reporter, ODN2006 stimulation)
# Condition Set: HEK-Blue cells overexpressing human TLR9, ODN2006 5 nM

COc1ccc(-c2[nH]c3ccc(C4CCN(C(=O)NCc5ccco5)CC4)cc3c2CC(F)(F)F)cc1OC
≥ 50000 nM
COc1ccc(-c2[nH]c3ccc(C4CCN(C5CCN(CC(C)(C)C)CC5)CC4)cc3c2C)cc1OC
169 nM
COc1ccc(-c2[nH]c3ccc(C4CCN(C5CCN(C6CC6)CC5)CC4)cc3c2C)cc1OC
154 nM

Query: Return the recorded IC50 value; entry: CCC(C)CN1CCC(N2CCC(c3ccc4[nH]c(-c5ccc(OC)c(OC)c5)c(C)c4c3)CC2)CC1 (centres unmarked)
Response: 89 nM

Query: Please look at this compound and report its IC50: CCc1c(-c2ccc(OC)c(OC)c2)[nH]c2ccc(C3CCN(CC(C)C(F)(F)F)CC3)cc12 (centres unmarked)
Response: ≥ 50000 nM

Query: Indicate the recorded IC50 value for this compound: CCc1c(-c2ccc(OC)c(OC)c2)[nH]c2ccc(C3CCN(C(=O)CNCC(C)(C)CO)CC3)cc12
Response: 2130 nM

Query: Specify IC50 for CCc1c(-c2ccc(OC)c(OC)c2)[nH]c2c(F)cc(C3CCN(C4CCN(CC(C)C)CC4)CC3)cc12 and stop.
Response: 280 nM

* * *

# Measured Target: UniProt:Q9NR96
# Test Protocol: TLR9 inhibition reporter assay (HEK-Blue cells, SEAP reporter, ODN2006 stimulation)
# Condition Set: HEK-Blue cells overexpressing human TLR9, ODN2006 5 nM
The threshold is 1000 nM. Values of IC50 beneath it are tagged 1.0; values meeting or exceeding it are tagged 0.0.

Completed entries (count: 6):
COc1ccc(-c2[nH]c3ccc(C4CCN(C(=O)CN5CCC(O)CC5)CC4)cc3c2C(C)C)cc1OC [Example 238]
0.0
COc1ccc(-c2[nH]c3ccc(C4CCN(C(=O)CN5CCC[C@H](C(=O)N6CCN(C(C)=O)CC6)C5)CC4)cc3c2C(C)C)cc1OC [Example 284]
0.0
CCN(CC)C(=O)C1CCCN(CC(=O)N2CCC(c3ccc4[nH]c(-c5ccc(OC)c(OC)c5)c(C)c4c3)CC2)C1 (stereo not shown) [Example 404]
0.0
COc1ccc(-c2[nH]c3ccc(C4CCN(C(=O)CN5CCC[C@H](C(=O)NC6(CO)CCCC6)C5)CC4)cc3c2C(C)C)cc1OC [Example 296]
0.0
CCCN1CCC(N2CCC(c3ccc4[nH]c(-c5ccc(OC)c(OC)c5)c(C)c4c3)CC2)CC1 [Example 63]
1.0
CCc1c(-c2ccc(OC)c(OC)c2)[nH]c2ccc(C3CCN(C(=O)C4(C)CCNCC4)CC3)cc12 [Example 187]
0.0

From here, focus on the item given below.
Query: Consider the compound COc1ccc(-c2[nH]c3ccc(C4CCN(C(C)CN(C)C)CC4)cc3c2C)cc1OC (stereo not shown) [Example 30] . Is its IC50 strictly less than 1000 nM?
Response: 1.0

* * *

Below, each entry is listed with its recorded IC50.
# Measured Target: human TLR9 (Homo sapiens, UniProt Q9NR96)
# Test Protocol: TLR9 inhibition reporter assay (HEK-Blue cells, SEAP reporter, ODN2006 stimulation)
# Condition Set: HEK-Blue cells overexpressing human TLR9, ODN2006 5 nM
Value expressed in nM; do not type the unit.

Query: Find the measured IC50 of COc1ccc(-c2[nH]c3ccc(C4CCN(C(=O)CN5CCCN(C)CC5)CC4)cc3c2C(C)C)cc1OC [Example 239] and report it.
Response: 516

* * *

Some molecules, each annotated with its measured log10 IC50.
# Measured Target: human TLR8 (Homo sapiens)
# Construct: host or cells: HEK-Blue cells
# Sequence (Q9NR97 27-1041): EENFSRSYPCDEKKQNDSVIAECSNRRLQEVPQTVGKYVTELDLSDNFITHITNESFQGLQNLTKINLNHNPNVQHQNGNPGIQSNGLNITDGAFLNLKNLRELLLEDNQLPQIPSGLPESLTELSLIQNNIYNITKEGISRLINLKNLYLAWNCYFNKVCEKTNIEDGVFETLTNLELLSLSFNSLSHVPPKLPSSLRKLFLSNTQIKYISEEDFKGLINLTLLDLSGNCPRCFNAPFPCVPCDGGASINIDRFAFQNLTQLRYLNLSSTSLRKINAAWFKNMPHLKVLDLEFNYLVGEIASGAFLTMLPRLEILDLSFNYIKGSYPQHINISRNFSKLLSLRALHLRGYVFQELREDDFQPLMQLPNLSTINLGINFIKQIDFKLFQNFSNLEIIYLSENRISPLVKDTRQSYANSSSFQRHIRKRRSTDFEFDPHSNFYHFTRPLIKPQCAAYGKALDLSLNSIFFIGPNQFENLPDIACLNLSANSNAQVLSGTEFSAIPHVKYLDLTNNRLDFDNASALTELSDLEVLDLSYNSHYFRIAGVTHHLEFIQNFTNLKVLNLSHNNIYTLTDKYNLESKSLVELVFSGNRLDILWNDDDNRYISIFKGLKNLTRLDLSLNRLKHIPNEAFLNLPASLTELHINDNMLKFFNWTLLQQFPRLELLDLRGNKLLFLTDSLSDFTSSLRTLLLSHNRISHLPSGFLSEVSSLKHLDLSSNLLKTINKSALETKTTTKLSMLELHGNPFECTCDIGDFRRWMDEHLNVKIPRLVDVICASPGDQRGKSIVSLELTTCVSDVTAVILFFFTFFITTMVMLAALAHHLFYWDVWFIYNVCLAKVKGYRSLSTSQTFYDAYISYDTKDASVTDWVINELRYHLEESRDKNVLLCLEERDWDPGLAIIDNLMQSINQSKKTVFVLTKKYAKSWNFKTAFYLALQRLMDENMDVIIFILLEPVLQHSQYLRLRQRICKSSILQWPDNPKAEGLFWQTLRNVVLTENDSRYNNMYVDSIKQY
# Test Protocol: TLR8 inhibition reporter assay (HEK-Blue cells, SEAP reporter, R848 stimulation)
# Format: cell-based
# Condition Set: HEK-Blue cells overexpressing human TLR8, R848 15.9 μM
The base-10 logarithm of IC50, taken with IC50 in nM, is what appears here.

// solved cases for log10 IC50 follow
CCc1c(-c2ccc(OC)c(OC)c2)[nH]c2ccc(C3CCN(C(=O)c4ccncc4)CC3)cc12 [Example 183]
2.92
COc1ccc(-c2[nH]c3ccc(C4CCN(C(=O)CNC5CCC(O)CC5)CC4)cc3c2C(C)C)cc1OC (stereo not shown) [Example 246]
1.28
CCc1c(-c2ccc(OC)c(OC)c2)[nH]c2ccc(C3CCN(C4CCN(Cc5csnn5)CC4)CC3)cc12 [Example 130]
2.90
COc1ccc(-c2[nH]c3ccc(C4CCN(C5CCN(C6CCC(C)CC6)CC5)CC4)cc3c2C)cc1OC (stereo not shown) [Example 80]
2.45
CNCCN1CCC(c2ccc3[nH]c(-c4ccc(OC)c(OC)c4)c(CC(F)(F)F)c3c2)CC1 [Example 413]
1.45

Query: Provide human TLR8 (Homo sapiens) log10 IC50 reading for CCN(CC)C(=O)C1CCCN(CC(=O)N2CCC(c3ccc4[nH]c(-c5ccc(OC)c(OC)c5)c(C)c4c3)CC2)C1 (stereo not shown) [Example 404] .
Response: 3.57

Query: Give log10 IC50; test system human TLR8 (Homo sapiens); molecule COc1ccc(-c2[nH]c3ccc(C4CCN(CC(=O)N5CCC(N6CCN(C)CC6)CC5)CC4)cc3c2CC(F)(F)F)cc1OC [Example 363]
Response: 1.64

* * *

Reported pIC50 values for a set of compounds
# Measured Target: human TLR9 (Homo sapiens)
# Test Protocol: TLR9 inhibition reporter assay (HEK-Blue cells, SEAP reporter, ODN2006 stimulation)
# Condition Set: HEK-Blue cells overexpressing human TLR9, ODN2006 5 nM
Counter-ions that a name gives are not always drawn.
Units for pIC50: none; it is -log10 of a concentration expressed in mol/L.

COc1ccc(-c2[nH]c3ccc(C4CCN(CC(=O)N5CCC(C(N)=O)CC5)CC4)cc3c2CC(F)(F)F)cc1OC
5.71
COc1ccc(-c2[nH]c3ccc(C4CCN(C5CCN(C6CCCCC6)CC5)CC4)cc3c2C)cc1OC
7.06
COc1ccc(-c2[nH]c3ccc(C4CCN(C(=O)CN5CCC[C@H](C(=O)NC(C)C)C5)CC4)cc3c2C(C)C)cc1OC
5.31
CCc1c(-c2ccc(OC)c(OC)c2)[nH]c2c(F)cc(C3CCN(CCNC)CC3)cc12
5.91
CCN(CC)C(=O)CN(C)CC(=O)N1CCC(c2ccc3[nH]c(-c4ccc(OC)c(OC)c4)c(C(C)C)c3c2)CC1 [Example 203, TFA]
5.18

Pending compound:
Query: Give the reported value of pIC50 for this record: COc1ccc(-c2[nH]c3ccc(C4CCN(C(=O)CNC5CCC(N(C)C)CC5)CC4)cc3c2C(C)C)cc1OC (stereo not shown)
Response: 5.69
